Measurement Description: Pharmacokinetic investigation, oral bioavailability in mice
Assay type: in vivo
Particulars: plasma, Mouse, at 1 mg/kg p.o., read-out: Bioavailability following oral administration
Protocol: Pharmacokinetic data were determined after administering various substances i.v. or p.o. as solutions to mice, rats and dogs. For this, blood samples were collected up to 24 hours after administration. The concentrations of the unaltered substance were determined by bioanalytical methods (HPLC or HPLC-MS) in the plasma samples which were obtained from the blood samples. […]
Property Name: bioavailability (%)
Please give a number only; it is taken to be in %.

Consider the molecule COCCOc1ccc(-c2c(C#N)c(N)nc(SCc3cccnc3)c2C#N)cc1 [Example 1] and give its recorded bioavailability.
31.5

----------
Measurement Description: Pharmacokinetic investigation, oral bioavailability in dogs
Format: in vivo
Particulars: plasma, Dog, at 3 mg/kg p.o., read-out: Bioavailability following oral administration
Property Name: bioavailability
Please make sure the unit comes right after the number.

Return reported bioavailability. Input compound: COCCOc1ccc(-c2c(C#N)c(N)nc(SCc3cccnc3)c2C#N)cc1 [Example 1]
32.6%

----------
Measurement Description: Pharmacokinetic investigation, oral bioavailability in mice
Type: in vivo
Particulars: plasma, Mouse, at 3 mg/kg p.o., read-out: Bioavailability following oral administration
Property Name: bioavailability
Your reply should be a number followed by the unit it is expressed in.

Determine from records and report bioavailability for `N#Cc1c(N)nc(SCc2csc(-c3ccc(Cl)cc3)n2)c(C#N)c1-c1ccc(OCCO)cc1`
41.3%

----------
Measurement Description: Pharmacokinetic investigation, oral bioavailability in rats
Assay type: in vivo
Particulars: plasma, Rat, at 3 mg/kg p.o., read-out: Bioavailability following oral administration
Protocol: Pharmacokinetic data were determined after administering various substances i.v. or p.o. as solutions to mice, rats and dogs. For this, blood samples were collected up to 24 hours after administration. The concentrations of the unaltered substance were determined by bioanalytical methods (HPLC or HPLC-MS) in the plasma samples which were obtained from the blood samples. […]
Property Name: bioavailability
Include the unit right after the number.

# return recorded bioavailability for entry `N#Cc1c(N)nc(SCc2csc(-c3ccc(Cl)cc3)n2)c(C#N)c1-c1ccc(OCCO)cc1`
42.3%

Then this compound:
Tell me bioavailability reported for `COCCOc1ccc(-c2c(C#N)c(N)nc(SCc3cccnc3)c2C#N)cc1`
5%

Where these numbers come from: patent US7109218B2
